# maps each entry to its z-score
assay: S. cerevisiae RM11-1a growth modifiers, primary screen, strain RM11-1a, OD600, basal, 24 h (AID 1177); conditions: OD600, 24 h, higher = more signal, called active from +8 up or from −8 down;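 also: cultures grown under basal conditions with no added stressor; test concentration not given here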
Write the value as a bare number.

CO[C@H]1COC(=O)CC=C[C@@H](C)[C@H](OC)COC(=O)[C@@H]2CCCN2C(=O)CC=C[C@@H]1C; -0.055
Cc1cc2c(nc1C)CCCCN2CC(C)ON=C1[C@H]2CCn3c(=O)n(-c4ccccc4)c(=O)n3[C@H]2[C@H](O)[C@@H]2O[C@H]12 (stereo partly drawn); 0.722
CON=C[C@@H](NS(=O)(=O)c1ccc(C)cc1)[C@H](C)C=CCC(=O)OC; 0.475
CC(C)=CCCC(C)=CCON=C1C[C@@H](O)[C@@H](O)[C@@H]2[C@@H]3C(=O)N(Cc4ccccc4)C(=O)[C@@H]3CC[C@H]12; -1.28
CO[C@@H]1COC(=O)CC=C[C@@H](C)[C@H](OC)COC(=O)[C@@H](C)COC(=O)CC=C[C@H]1C; 0.401

Request: Can you look up the measured z-score of CCOC(=O)[C@H](CC(C)C)NC(=O)CCC1CC(OC(=O)NCc2cccc3ccccc23)CC2(CCCC(COC(=O)NCCc3ccc(Cl)cc3)O2)O1 (stereo partly drawn) for me?
Result: -1.2

Request: Now consider O=C(C=Cc1ccc2c(c1)OCO2)c1ccc(F)cc1 and answer again.
Result: -0.31

Request: Now consider COCCNC(=O)OCC1CCCC2(CC(OC(=O)NCc3ccc4c(c3)OCO4)CC(CCC(=O)N[C@@H](C)C(=O)OC)O2)O1 (stereo partly drawn) and answer again.
Result: 0.715

###

assay: PSAC antagonists in infected red cells, primary screen, cell-based, P. falciparum Indochina, OD700, 2 h (AID 1155);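 also: lysis reports solute entry through the parasite surface anion channel PSAC; channel blockers reduce lysis of infected cells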; conditions: P. falciparum Indochina infected erythrocytes, osmotic lysis OD700; higher = more signal, called active from +8 up or from −8 down
Note that class boundaries on z-score are low (below -0.08), middle (-0.08 to below 0.3), high (0.3 or more)

CO[C@H]1COC(=O)[C@@H](C)COC(=O)[C@@H](OCc2ccccc2)C=C[C@@H]1C; high
CCOC(=O)[C@H](Cc1ccccc1)NC(=O)CCC1CC(OC(=O)NCc2cccc3ccccc23)CC2(CCCC(COC(=O)NCC(c3ccccc3)c3ccccc3)O2)O1 (stereo not given in full); high

Request: Please indicate the class for COC(=O)CC=C[C@@H](C)[C@@H](C=NO[C@@H](C)c1cc(-c2c(C)cc(C)cc2C)no1)NS(=O)(=O)c1ccc(C)cc1 based on its z-score.
Result: low

Request: Now consider CO[C@@H]1C=CCC(=O)N2CCC[C@H]2C(=O)OC[C@@H](C)C(=O)OC[C@H]1C and answer again.
Result: middle

Request: Now consider COC(=O)[C@@H]1CC[C@H](C)[C@@H](c2ccc(C)cc2)N1C(=O)c1ccc(C=NO[C@H](C)c2cn([C@@H]3COC[C@H]3O)nn2)cc1 and answer again.
Result: high

###

assay: splicing luciferase reporter signal modulators, primary screen, spliceosome inhibition project, cell-based, HEK293, splice +/- reporter (AID 1101); settings: luminescence, 24 h, higher = more signal, called active from +8 up or from −8 down;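 also: HEK293 cells carrying a splicing-competent luciferase reporter gene; test concentration not given here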
Active and inactive are the calls of the source.
test readout: z-score

Use these answered entries as a reference point.
O=C1[C@H]2[C@H]3[C@H](O)[C@H](O)CC(=NOC[C@@H](O)COCc4ccco4)[C@H]3CC[C@H]2C(=O)N1C[C@@H]1CCCO1; 0.273 (inactive)
CCN1C(=O)[C@H]2[C@H]3[C@H](O)[C@H](O)CC(=O)[C@@H]3CC[C@H]2C1=O; -0.0387 (inactive)
CCOC(=O)[C@H](CC(C)C)NC(=O)CCC1CC(OC(=O)NCc2ccc3c(c2)OCO3)CC2(CCCC(COC(=O)NCCCN3CCCC3=O)O2)O1 (stereo not given in full); -0.719 (inactive)
CCCNC(=O)OC[C@H]1O[C@H](CCON=C(C)C)C=C[C@@H]1Oc1ccc(OC)cc1; -0.0557 (inactive)
O=C(NN=C1C[C@@H](O)[C@@H](O)[C@@H]2[C@@H]3C(=O)N(C[C@@H]4CCCO4)C(=O)[C@@H]3CC[C@@H]12)OCc1ccccc1; -1.03 (inactive)
CCCCC#C[C@@H]1C=C[C@H](Oc2cc(OC)c(OC)c(OC)c2)[C@@H](COC(=O)OCC)O1; -0.696 (inactive)
CC(=O)OC[C@H]1OC(ON=CC[C@@H]2C=C[C@H](OC(C)=O)[C@@H](COC(C)=O)O2)[C@H](OC(C)=O)[C@@H](OC(C)=O)[C@@H]1OC(C)=O (stereo not given in full); 0.632 (inactive)
CCOC(=O)[C@H](Cc1ccccc1)NC(=O)CCC1CC(OC(=O)NCc2cccc3ccccc23)CC2(CCCC(COC(=O)NCCC(C)C)O2)O1 (stereo not given in full); -1.74 (inactive)
CCOC(=O)CCN1C(=O)[C@H]2[C@H]3[C@H](O)[C@H](O)CC(=NOCc4ccccc4)[C@H]3CC[C@H]2C1=O; 0.509 (inactive)
COc1ccc(O[C@H]2C=C[C@@H](c3ccccc3)O[C@@H]2CON=C(C)CCC(=O)OC[C@H]2O[C@H](c3ccccc3)C=C[C@@H]2Oc2ccc(OC)cc2)cc1; 0.114 (inactive)

Request: Can you look up the measured z-score of CC(C)(C)N1C(=O)[C@H]2[C@H]3[C@H](O)C=CC(=O)[C@@H]3CC[C@H]2C1=O for me?
Result: -0.128 (inactive)

Request: Now consider O=C1[C@H]2[C@H]3[C@H](O)[C@H](O)CC(=NOC[C@@H](O)COCc4ccco4)[C@H]3CC[C@H]2C(=O)N1Cc1ccccc1 and answer again.
Result: -0.907 (inactive)

Request: Now consider CCOC(=O)CCN1C(=O)[C@H]2[C@H]3[C@H](O)[C@H](O)CC(=NOCC(C)C)[C@H]3CC[C@H]2C1=O and answer again.
Result: 0.108 (inactive)

Request: Now consider CO[C@H]1COC(=O)[C@H](C)NC(=O)[C@@H](C)COC(=O)[C@H]2CCCN2C(=O)CC=C[C@H]1C and answer again.
Result: -0.447 (inactive)

Request: Now consider CC(=O)OC[C@H]1O[C@H](C#Cc2ccccc2)C=C[C@@H]1OC(C)=O and answer again.
Result: -1.92 (inactive)
